From: patent US4873225A

- System: Bacillus subtilis PCI219
- ASSAY: MIC, standard serial dilution method
- Assay type: cell-based
- RUN_CONDITIONS: PCI219, pH 7, read-out: MIC
Listing of recorded MIC by entry.
I only need the number, in µg/mL, no unit after it.

Recorded MIC, per entry:
1) NC[C@@H]1CC[C@@H](N)[C@@H](O[C@H]2[C@H](F)[C@@H](O[C@H]3O[C@H](CO)[C@@H](O)[C@H](N)[C@H]3O)[C@H](NC(=O)[C@@H](O)[C@H](F)CN)C[C@@H]2N)O1 | 0.2
2) NC[C@@H](F)[C@H](O)C(=O)N[C@@H]1C[C@H](N)[C@@H](O[C@H]2O[C@H](CN)[C@@H](O)C[C@H]2F)[C@H](O)[C@H]1O[C@H]1O[C@H](CO)[C@@H](O)[C@H](N)[C@H]1O | 0.39

Looking for the measured MIC of NC[C@@H](F)[C@H](O)C(=O)N[C@@H]1C[C@H](N)[C@@H](O[C@H]2O[C@H](CN)[C@@H](O)[C@H](O)[C@H]2N)[C@H](O)[C@H]1O[C@H]1O[C@H](CO)[C@@H](O)[C@H](N)[C@H]1O , can you help? 1.56

====

- System: Pseudomonas aeruginosa TI 13
- ASSAY: MIC, standard serial dilution method
- Assay type: cell-based
- RUN_CONDITIONS: Pseudomonas aeruginosa, TI13; measured at pH 6; read-out: MIC
Listing of recorded MIC by entry.
I only need the number, in µg/mL, no unit after it.

1. NC[C@@H](F)[C@H](O)C(=O)N[C@@H]1C[C@H](N)[C@@H](O[C@H]2O[C@H](CN)[C@@H](O)[C@H](O)[C@H]2O)[C@H](O)[C@H]1O[C@H]1O[C@H](CO)[C@@H](O)[C@H](N)[C@H]1O [Invention Compound No. 1] | 3.12
2. NC[C@@H](F)[C@H](O)C(=O)N[C@@H]1C[C@H](N)[C@@H](O[C@H]2O[C@H](CN)[C@@H](O)C[C@H]2N)[C@H](F)[C@H]1O[C@H]1O[C@H](CO)[C@@H](O)[C@H](N)[C@H]1O [Invention Compound No. 9] | 3.12
3. NC[C@@H](F)[C@H](O)C(=O)N[C@@H]1C[C@H](N)[C@@H](O[C@H]2O[C@H](CN)[C@@H](O)[C@H](O)[C@H]2N)[C@H](O)[C@H]1O[C@H]1O[C@H](CO)[C@@H](O)[C@H](N)[C@H]1O [Invention Compound No. 5] | 3.12

Looking for the measured MIC of NC[C@@H](F)[C@H](O)C(=O)N[C@@H]1C[C@H](N)[C@@H](O[C@H]2O[C@H](CN)[C@@H](O)C[C@H]2F)[C@H](O)[C@H]1O[C@H]1O[C@H](CO)[C@@H](O)[C@H](N)[C@H]1O [Invention Compound No. 3] , can you help? 3.12

Looking for the measured MIC of NCC[C@H](O)C(=O)N[C@@H]1C[C@H](N)[C@@H](O[C@H]2O[C@H](CN)[C@@H](O)[C@H](O)[C@H]2O)[C@H](O)[C@H]1O[C@H]1O[C@H](CO)[C@@H](O)[C@H](N)[C@H]1O [Amikacin, reference compound] , can you help? 12.5

Looking for the measured MIC of NC[C@@H]1CC[C@@H](N)[C@@H](O[C@H]2[C@H](F)[C@@H](O[C@H]3O[C@H](CO)[C@@H](O)[C@H](N)[C@H]3O)[C@H](NC(=O)[C@@H](O)[C@H](F)CN)C[C@@H]2N)O1 [Invention Compound No. 10] , can you help? 3.12

Looking for the measured MIC of NCC[C@H](O)C(=O)N[C@@H]1C[C@H](N)[C@@H](O[C@H]2O[C@H](CN)CC[C@H]2N)[C@H](O)[C@H]1O[C@H]1O[C@H](CO)[C@@H](O)[C@H](N)[C@H]1O [Habekacin, reference compound] , can you help? 25

Looking for the measured MIC of NC[C@@H](F)[C@H](O)C(=O)N[C@@H]1C[C@H](N)[C@@H](O[C@H]2O[C@H](CN)[C@@H](O)[C@H](O)[C@H]2O)[C@H](F)[C@H]1O[C@H]1O[C@H](CO)[C@@H](O)[C@H](N)[C@H]1O [Invention Compound No. 4] , can you help? 3.12
